FYI, the data here is from patent US20240425587A1.

# measuredOn: T1, human PILRA, G78 variant, ectopically expressed on 293 cells (human, UniProt Q9UKJ1 20-303)
# T1 construct: the cells are labelled G78; also called hA G78 OE; hA
# testName: flow cytometry, 293 cells expressing target
reportedProperty: EC50 (µg/mL)
Give the number; µg/mL is assumed, so skip it.

Example entries begin here.
>>> obsvalue("D7 (antibody, V domains shown, second hybridoma campaign) VH: QVQLKESGPGLVAPSQSLSITCTVSGFSLTSYAISWVRQPPGKGLEWLGIIWTGGDTNYNSGLKSRLSITKDNSKSQVFLKMNSLQTDDTSRYYCARNSLFYGITPYYFDYWGQGTTLTVSS VL: DIVLTQSPATLSVTPGDSVSLSCRASQSIRNDLHWYQQKSHESPRLLIKYASQSISGIPSRFSGSGSGTDFTLTINVLETEDFGMYFCQQSNGWPLTFGAGTKLELK")
0.3
>>> obsvalue("E12 (antibody, V domains shown, B-cell cloning campaign (mice)) VH: QVQLQQSGAELAKPGASVKLSCKASGYTFTSYWIHWVKQRPGQGLEWIGYINPSSGDTEYNQKFKDKATLTADKSSNTAYMQLSSLTYEDSAVYYCARSAPDDGYYDYAMDYWGQGTSVTVSS VL: DIVMTQSRKFMSTSVGDRVSVTCKASQNVGSNVAWYQQKPGQSPKGLTYSASYRYSGVPDRFTGSGSGTDFTLTISNVQSEDLAEYFCQQYNSYPYTFGGGTKLEIK")
31
>>> obsvalue("A13 (antibody, V domains shown, phage campaign; same VH/VL as E19) VH: QVQLVQSGAEVKKPGSSVKVSCKASGYLFSDYAMNWVRQAPGQGLEWVGWIIPNSGGTKFAQTFQGRVTITADESTSTAYMELSSLRSEDTAVYYCAREHGVVPADHYYYGMDVWGQGTTVTVSS VL: EIVMTQSPATLSVSPGERATLSCRASQSISSSYLAWYQQKPGQAPRLLIYGASTRATGIPARFSGSGSGTEFTLTISSLQSEDFAVYYCQQYGRFPWTFGQGTKVEIK")
0.8

[ask] Given the binder E15 (antibody, V domains shown, B-cell cloning campaign (mice)) VH: QVQLQQSGAELVKPGASVKLSCKASGNTFTIYDINWVRQRPEQGLEWIGWIFPGDGSTKYNGKFKGKATLTTDKSSSTAYMQLSRLTSEDSAVYFCARRAHYYGSSFDYWGQGTTLTVSS VL: DIQMTQSSSYLSVSLGGRVTITCKASDHINNWLAWYQQKPGNGPRLLISGAISLEIGVPSRFSGSGSGKEYTLSITSLQTEDVATYYCQQYWSPPWTFGGGTKLEIK , what is its reported EC50?
[reply] 4.73

[ask] // query: E10 (antibody, V domains shown, phage campaign) VH: EVQLLESGGGLVKPGGSLRLSCAASGFTFSNYAMSWVRQAPGKGLEWVAVIYSGADTYYADSVKGRFTISRDDSKNTLYLQMNSLKTEDTAVYYCTRDIGLNYGDYELFDYWGQGTLVTVSS VL: DIVMTQSPLSLPVTPGEPASISCRSSQSLLHSNGYNYLDWYLQKPGQSPQLLIYDASNLETGVPDRFSGSGSGTDFTLKISRVEAEDVGVYYCMQGLQTPYVFGQGTKLEIK
[reply] 0.1
